# tested.system: N-glycosylase/DNA lyase (Homo sapiens, UniProt O15527)
# Sequence (O15527 whole entry): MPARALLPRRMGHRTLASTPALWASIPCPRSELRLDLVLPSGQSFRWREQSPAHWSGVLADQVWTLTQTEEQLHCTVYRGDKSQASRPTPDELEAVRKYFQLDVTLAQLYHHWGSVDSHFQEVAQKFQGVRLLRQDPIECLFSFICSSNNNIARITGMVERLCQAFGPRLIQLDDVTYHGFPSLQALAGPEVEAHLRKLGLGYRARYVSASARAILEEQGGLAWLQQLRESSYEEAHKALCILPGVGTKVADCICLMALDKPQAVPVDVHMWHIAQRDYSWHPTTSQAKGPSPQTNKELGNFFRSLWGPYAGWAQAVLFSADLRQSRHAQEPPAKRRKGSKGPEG
# test.description: Inhibition of human OGG1 assessed as protection against NaOH-mediated strand cleavage using AP-containing substrate
# Set-up: scale not given: the % may be the effect or the level left
# Activity listing for each entry below
A bare number is not enough; add the unit after it.

As a guide, the following entries are already answered.
NNC(=O)c1sc2cccc(Cl)c2c1Cl: 2%
O=C(NN=C1CCCCC1)c1cc2ccccc2cc1O: 10%
NNc1nncc2ccccc12: 64%

Activity for "NNC(=O)c1ccncc1" ?
1%

* * *

# tested.system: N-glycosylase/DNA lyase (Homo sapiens)
# test.description: Inhibition of human OGG1 assessed as reduction in free 8-oxo-Gua release using gamma-irradiated calf thymus DNA substrate incubated for 1 hr by GC-MS/MS assay
The source made the active and inactive calls. No cut-off for these calls is given here.
The categories you may choose from are active, inactive

Cc1cc(C(=O)NNCc2ccccc2)no1: inactive
O=C(NN=C1CCCCC1)c1cc2ccccc2cc1O: active
NNC(=O)c1sc2cccc(Cl)c2c1Cl: active

Lab note: next compound to report on.
Tell me the recorded outcome of this test for "NNC(=O)c1ccncc1" .
inactive
